These entries and their values trace back to patent US11691989B2.

A set of molecules tested on Mcl-1 protein (residues 171-323) (Homo sapiens (Human), UniProt Q07820), with measured pIC50:
Here pIC50 is given on a logarithmic scale as minus log10 of the concentration in mol/L.

Consider the worked cases shown below.
>>> assay_result("Cc1c(C(=O)O)n2c3ccc(Cl)c(c13)-c1c(nn(C)c1C)CN(c1ccccc1)Cc1cc(n(C)n1)CSc1cc(c3ccc(F)cc3c1)OCCC2")
7.62
>>> assay_result("Cc1c(C(=O)O)n2c3ccc(Cl)c(c13)-c1c(nn(C)c1C)CN(C(=O)c1ccccn1)Cc1cc(n(C)n1)CSc1cc(c3ccc(F)cc3c1)OCCC2")
7.66
>>> assay_result("Cc1c(C(=O)O)n2c3ccc(Cl)c(c13)-c1c(nn(C)c1C)CN(C(=O)c1nccn1C)Cc1cc(n(C)n1)CSc1cc(c3ccc(F)cc3c1)OCCC2")
7.64
>>> assay_result("Cc1c(C(=O)O)n2c3ccc(Cl)c(c13)-c1c(nn(C)c1C(F)F)CN(S(C)(=O)=O)Cc1cc(n(C)n1)CSc1cc(c3ccc(F)cc3c1)OCCC2")
7.80
>>> assay_result("Cc1c(C(=O)O)n2c3ccc(Cl)c(c13)-c1c(nn3c1COCC3)CN(S(C)(=O)=O)Cc1cc(n(C)n1)CSc1cc(c3ccc(F)cc3c1)OCCC2")
7.77

Proceeding to the next molecule to report its pIC50.
Complete the entry with pIC50 for CNC(=O)Cn1nc(C)c2c1CSCc1cc(n(C)n1)CSc1cc(c3ccccc3c1)OCCCn1c(C(=O)O)c(C)c3c-2c(Cl)ccc31
7.85
